TEST NAME: chemical genetic growth profiling, strain panel (AID 1159580);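 further: tested at 20 µM; growth read once vehicle control cultures reached saturation at 30 °C; 1 = growth at the plate median or of vehicle wells; lower values mean less growth of the strain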
CONDITION CONTEXT: S. cerevisiae deletion strains, growth OD, locus YPR163C, strain tif3, stronger effect = lower value
Hit rate of the full screen: of about 5,500 compounds, about 2,000 (36%) were called active. Inconclusive results (about 18%) are left out. Some of the results follow.
QUANTITY NAME: normalized growth

structure_notation=O=c1[nH]cnc2nc[nH]c12 quantity_name="normalized growth" measurement=0.988
structure_notation=C[C@H]1C(=O)O[C@@H]2CCN3CC=C(COC(=O)[C@](C)(O)[C@]1(C)O)[C@H]23 quantity_name="normalized growth" measurement=0.986
structure_notation=N#C/C(=C\c1ccc(O)cc1)C(=O)O quantity_name="normalized growth" measurement=1.01
structure_notation=c1coc(CNc2ncnc3nc[nH]c23)c1 quantity_name="normalized growth" measurement=1
structure_notation=COC(=O)C1=CO[C@@H](O[C@@H]2O[C@H](CO)[C@@H](O)[C@H](O)[C@H]2O)[C@@H]2[C@@H](C)[C@@H](O)C[C@H]12 quantity_name="normalized growth" measurement=0.984

---

TEST NAME: chemical genetic growth profiling, strain panel (AID 1159580);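 further: tested at 20 µM; growth read once vehicle control cultures reached saturation at 30 °C; 1 = growth at the plate median or of vehicle wells; lower values mean less growth of the strain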
CONDITION CONTEXT: S. cerevisiae deletion strains, growth OD, locus YLR058C, strain SHM2 (second series), stronger effect = lower value
Among all 5,500 compounds or so, about 2,000 (36%) were called active. About 18% were inconclusive and are not listed. The list shows a part of the results.
QUANTITY NAME: normalized growth

structure_notation=CC(=O)NN(C)c1ccc(C(F)(F)F)cc1[N+](=O)[O-] measurement=1.01
structure_notation=Cc1onc(-c2c(F)cccc2Cl)c1C(=O)N1CCN(c2ncccc2C(F)(F)F)CC1 measurement=0.987
structure_notation=COc1cc(Cl)c(Cl)cc1Cl measurement=0.994
structure_notation=O=C(c1ccc(Cl)cc1)N1CCN(c2ccc(C(F)(F)F)cn2)CC1 measurement=0.974
structure_notation=CC(=O)/C(=C\N(C)C)Sc1nnc(C(F)(F)F)n1C measurement=1
structure_notation=O=C(CSc1nnc(-c2ccco2)n1-c1ccc2c(c1)OCCO2)c1cccc(F)c1 measurement=1.01
structure_notation=FC(F)(F)c1ccc(-n2cncn2)nc1 measurement=1
structure_notation=NNC(=S)Nc1cc(C(F)(F)F)ccc1Cl measurement=0.977
structure_notation=c1ccc2c(c1)-c1cccc3cccc-2c13 measurement=0.923
structure_notation=CC1=CC(C)(C)NC(=S)N1 measurement=1
structure_notation=NNC(=S)Nc1ccc(C(F)(F)F)cc1 measurement=0.968
structure_notation=COc1ccc(-n2c(SCc3ccc(Br)cc3)nnc2-c2ccco2)cc1 measurement=0.989

---

TEST NAME: chemical genetic growth profiling, strain panel (AID 1159580);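 further: tested at 20 µM; growth read once vehicle control cultures reached saturation at 30 °C; 1 = growth at the plate median or of vehicle wells; lower values mean less growth of the strain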
CONDITION CONTEXT: S. cerevisiae deletion strains, growth OD, locus YLL026W, stronger effect = lower value
About 2,000 (36%) of roughly 5,500 compounds were called active. About 18% were inconclusive and are not listed. This is one part of the list.
Mark each entry True if its normalized growth sits below 1, and False for all others.

compound=CCCc1nc(C(C)(C)O)c(C(=O)OCc2oc(=O)oc2C)n1Cc1ccc(-c2ccccc2-c2nn[nH]n2)cc1 class=True
compound=O=C1c2ccccc2C(=O)c2c(O)c(O)cc(O)c21 class=True
compound=COc1cc2c(cc1-c1coc3c4c(c(OC)cc3c1=O)OC(C)(C)C=C4)OCO2 class=False
compound="C[C@]12CCC3C(CC[C@H]4CC(=O)CC[C@]34C)C1CCC2=O (some centres undefined)" class=True
compound=CN1CCN(CCCN2c3ccccc3Sc3ccc(Cl)cc32)CC1 class=True
compound=COc1cc(OC)c(C(C)=O)c(O)c1C class=True
